Experimental protocol: NCI Yeast Anticancer Drug Screen. Data for the mec2-1 strain (AID 157)
Setup conditions: S. cerevisiae mec2-1 strain, at 50.0 µM, hits give high values
This is part of a sample that, as a whole, favours compounds with a hit. Of some 79,000 tested, about 15% had one in any assay.
Recorded metric: growth inhibition (%)
// units = %; emit number, no label

The following molecules have reported results that may help.
Molecule | Unit | Value
Cc1ccc(S(=O)(=O)N2CCC(C(=O)O)(c3ccccc3)CC2)cc1 | % | -0.9
O=C(Nc1nc2ccccc2n1Cc1ccc(Cl)cc1)NC12CC3CC(CC(C3)C1)C2 | % | -6.45
O=[N+]([O-])C1C=Nc2ccccc2N=C1 | % | -16.6
CCOc1ccccc1NC(=S)NC1CCCCC1 | % | -9.3
COc1cc([C@@H]2c3cc4c(cc3[C@H](O)[C@H]3COC(=O)[C@@H]23)OCO4)cc(OC)c1OC | % | 4.2
Cc1cnc(N)s1 | % | -23.9
Nc1ncnc2nc(N3CCN(CCO)CC3)[nH]c12 | % | -8.75
CC1(C)CC2(C)Sc3ccccc3N2C(=S)N1 (stereo not given) | % | -2.15
N#Cc1ccc(OC(=O)Nc2ccccc2C(F)(F)F)cc1 | % | -18.9
CSC(=S)Nc1cc(C)cc(C)n1 | % | 17.7

Answer with the recorded growth inhibition for the molecule listed here: `C[Si](C)(C)c1ccc(-c2ccccc2)cc1`
-8.65

Answer with the recorded growth inhibition for the molecule listed here: Cc1c(C(=O)CC2OC(=O)C(Cl)=C2Cl)c2ccccc2n1C(=O)Nc1ccc(Cl)cc1 (stereo not given)
-6.75

Answer with the recorded growth inhibition for the molecule listed here: `CCCCCc1cc[n+](CC(=O)c2ccccc2)cc1`
0.7

Answer with the recorded growth inhibition for the molecule listed here: `CCOC(C)=N`
-29.4

Answer with the recorded growth inhibition for the molecule listed here: `CCc1ccc2[nH]c(C(=O)O)cc2c1`
-18.4

Answer with the recorded growth inhibition for the molecule listed here: `C(=C1\CCC/C(=C/c2ccccc2)C1=NNc1ccccc1)/c1ccccc1`
2.35

Answer with the recorded growth inhibition for the molecule listed here: Cc1ccc(SC(C)/C=C/NNC2=NC(c3ccccc3)C(c3ccccc3)=NN2)cc1 (stereo not given)
10.2

Answer with the recorded growth inhibition for the molecule listed here: `Oc1cccc2c(O)cccc12`
22.8

Answer with the recorded growth inhibition for the molecule listed here: `CC(=O)NNc1nc(C)c(C(/C=C/c2ccc(/C=C/C(=N\NC(=O)c3ccncc3)c3sc(NNC(C)=O)nc3C)cc2)=N/NC(=O)c2ccncc2)s1`
-7.35
